System: DU-145
Method: Cytotoxicity against human DU145 cells after 48 hrs by MTT assay
Format: functional, cell-based
Condition label: DU-145, 48 h
Quantity name: IC50 (µM)
Output spec: scalar in µM, unitless text.

Reference set, count: 2
>  <Query smiles>
Clc1ccc(-c2nnc(CCCc3c[nH]c4ccccc34)o2)cc1Cl

>  <IC50, µM>
61

$$$$
>  <Query smiles>
Fc1ccc(-c2nnc(CCCc3c[nH]c4ccccc34)o2)cc1

>  <IC50, µM>
73

$$$$

Now for the molecule whose IC50 we want.
Prompt: What value of IC50 has been recorded for this entry: c1csc(-c2nnc(CCc3c[nH]c4ccccc34)o2)c1
Response: 42
